experimental_target: HDAC enzyme
experiment_description: Inhibition of Histone Deacetylase Enzymatic Activity (Assay Examples 1 and 2)
study_conditions: HDAC isoform not specified; fluorogenic Boc-Lys(Ac)-AMC or Boc-Lys(trifluoroacetyl)-AMC substrate
readout_label: IC50

COc1cccc(-c2csc(NC(=O)[C@H](CCCCNS(N)(=O)=O)NC(=O)OCc3ccccc3)n2)c1 : 0.2 to 0.5 µM

Please give the measured IC50 for this compound: NS(=O)(=O)NCCCC[C@H](NC(=O)OCc1ccccc1)C(=O)Nc1nc(C(=O)Nc2ccccc2)cs1
≤ 0.2 µM

Please give the measured IC50 for this compound: NS(=O)(=O)NCCCC[C@H](NC(=O)OCc1ccccc1)C(=O)Nc1nc(-c2ccc(C(F)(F)F)cc2)cs1
≤ 0.2 µM

---

experimental_target: HDAC enzyme
experiment_description: Inhibition of Histone Deacetylase Enzymatic Activity (Assay Examples 1 and 2)
study_conditions: HDAC isoform not specified; fluorogenic Boc-Lys(Ac)-AMC or Boc-Lys(trifluoroacetyl)-AMC substrate
IC50: recorded values

Here are 6 compounds together with their reported answers.
COc1ccc(-c2nc(NC(=O)[C@H](CCCCNS(N)(=O)=O)NC(=O)OCc3ccccc3)sc2C)cc1 : 200 to 500 nM
NS(=O)(=O)NCCCC[C@H](NC(=O)OCc1ccccc1)C(=O)Nc1cnc2ccccc2c1 : ≤ 200 nM
NS(=O)(=O)NCCCC[C@H](NC(=O)OCc1ccccc1)c1csc(Nc2ccccc2)n1 : 500 to 1000 nM
NS(=O)(=O)NCCCC[C@H](NC(=O)OCc1cccc(Cl)c1)C(=O)Nc1nc(-c2ccccc2)cs1 : ≤ 200 nM
COc1ccc(S(=O)(=O)N[C@@H](CCCCNS(N)(=O)=O)C(=O)Nc2cccc3cccnc23)cc1OC : 200 to 500 nM
NS(=O)(=O)NCCCC[C@H](NC(=O)c1cc2ccccc2o1)C(=O)Nc1cccc2cccnc12 : 200 to 500 nM

Please give the measured IC50 for this compound: COc1ccc(C(=O)N[C@@H](CCCCNS(N)(=O)=O)C(=O)Nc2cccc3cccnc23)cc1OC
200 to 500 nM

Please give the measured IC50 for this compound: COc1ccc(NC(=O)c2csc(NC(=O)[C@H](CCCCNS(N)(=O)=O)NC(=O)OCc3ccccc3)n2)cc1
≤ 200 nM
